# ASSAY_OVERVIEW: yeast display, Sf9 membrane polyspecificity reagent, FACS + sequencing; frameworks hold sequencing errors
QUANTITY_NAME: polyreactivity (PSR sort gate)

| RESIDUE_CODES | QUANTITY_NAME | VAL |
| --- | --- | --- |
| QVQLVESGGGLVQAGGSLRLSCAASGFIFWQYAMGWYRQAPGKERELVAAITSRGGSTYYADSVKGRFTISRDNAKNTVYLKMNSLKPEDTAVYYCARLYPRHLNGDYWGQGTQVTVSS | polyreactivity (PSR sort gate) | high polyreactivity |
| QVQLVESGGGLVQAGGSLRLSCAASGSTFKYYTMGWYRQAPGKERELVAAITSGGSTNYADSVKGRFTISRDNAKNTVYLQMNSLNPEDTAVYYCAAGGRRFYVGVIYDYWGQGNQVTVSS | polyreactivity (PSR sort gate) | high polyreactivity |
| QVQLVESGGGLVQAGGSLRLSCAASGSIFVIYTMGWYRQAPGKERELVAVITWSTGNTYYADSVKGRFTISRDNAKNTVYLQMNSLKPEDTAVYYCAARTTSRWRSCAYYYWGQGTQVTVSS | polyreactivity (PSR sort gate) | high polyreactivity |

----------
# ASSAY_OVERVIEW: yeast display, Sf9 membrane polyspecificity reagent, FACS + sequencing; frameworks hold sequencing errors
QUANTITY_NAME: polyreactivity (PSR sort gate)

| RESIDUE_CODES | VAL |
| --- | --- |
| QVQLVESGGGLVQAGGSLRLSCAASGSIFYVNAMGWYRQAPGKDRELVAAISVRGGRTYYADSVKGRFTISRDNAKNTVYLQLNSLKPEDTAVYYCATRISTVGRYDYWGQGTQVTVSS | high polyreactivity |
| QVQLVESGGGLVQAGGSLRLSCAASGSTFTPYAMGWYRPAPGKEREFVAAITSIGGSTYYADSVKGRFTISRDHAKFTVYLQMNSLKPEDTAVYYCAADYYEWSLWNDYWGQGTQVTVSS | high polyreactivity |
| QVQLVAGGGLVQAGGSLRLSCAASGSIFYSNAMGWYRQAPGKERELVAAISFSGGSTYYADSVKGRFTISRDNAKNTVYLQMNSLKPEDTAVYYCAAEFYKRKFGPFEYWGQGTQVTVSS | low polyreactivity |
| QVQLVESGGGLVQAGGSLRLSCAASGRIFKYYAKGWYRQAPGKERELVAAISWSGGRTYYADSVKGRFTISRDNAKTTVYLQMNSLKPEDTAVYDCNAASLRYSYTLFDSWGQGTQVTVSS | high polyreactivity |
| QVQLVESGGGLVQAGGSLRLSCAASGFTFASNAMGWYRQAPGKERELVAGISRTGTTTYYADSVKGRFTISRDNAKNTVYLQMNSLKPEDTAVYYCNKAFSHQIYATGMGYWGQGTQVTVSS | high polyreactivity |
| QVQLVESGGGLVQAGGSLLLSCAASGFTLPSYAMGWYIQAPGKERELVAAISSTGRTYYADSVKGRFTISRDNAKNTVYLQMNSLKPEDTAVYYCAARQDTWDAYLSTGEFDYWGQGTQVTVSS | high polyreactivity |
| QVQLVESGGGLVQAGGSLRFSCAASGFTFSDYAMGWYRQAPGKEREFVAAITRRGGSTYYADSVKGRFTISRDNAKNTVYLQMNSLKPEDTAVYYCAKRGLRSYSFPLWQGYDYWGQGTQVTVSS | high polyreactivity |
| QVQLVETGGGLVQAGGSLRLSCAASGRTFEGNAMGWYRQAPGKERELVAAISGSGGRTYYADSVKGRFTISRDNAKYTVYLQMNSLKPEDTAVYYETLYSVYNPRRFNYWGQGTQVTVSS | high polyreactivity |
| QVQLVETGGGLVQAGGSLRLSSAASGRIFRNYTMGWYRQAPGKERELVAAISSSGGRTYYADSVKGRFTISRDNEKNTVYLQMNSLKPEDTAVYYCNTDGPTWYPTYDYWGQGTQVTVSS | high polyreactivity |
| QVQLVESGGGLVQAGGSLRLSCAASGFTFYKNTMGWYRQAPGKERELVAAISYRGGTYYADSVKGRFTISRDNAKNTVYLQMNSLKPQDTAVYYCNARYRGKYSSYGYWGQGTQVTVSS | high polyreactivity |
| QVQLVESGGGLVQAGGSLRLSCAASGRTFLINSMGWYRQAPGKERELVAGITRNGGTTYYADSVKGRFTISRDNAKNTVYLQMNSLKPEDTAVYYCAKRYPSWFNYWGQGTQVTVSS | high polyreactivity |
| QVQLVESGGGLVQAGVSLRLSCAASGFISPKYGMGWYRQAPGKERELVAAITSSGGSTYYADSVKGRFTISRDNAKNTVYLQMNSLKPEDTAVYYCATRQVSRLYPYRYNYWGQGTQVTVSS | high polyreactivity |
| QVQLVEAGGGLVQAGGSLRLSGAASGSIFDYNAMGWYRQAPGKERELVASISYSGGSTYYADSVKGRFTISRDTAKNTVYLQMNSLKPEDTAVYYCNARFYWRWHTAYDYWGQGTQVTVSS | high polyreactivity |
| QVQLVESGGGLVQAGGSLRLSCAASGIFYYNAMGWNIQAPGKERELVAAISYSGGRTYYADSVKGRFTISRDNAKNTVYLQMNSLKPEDTAVYYCNAAARYGRLGGDYWGQGTQVTVSS | high polyreactivity |
| QDQLVESGGGLVQAGGSLRLSCAASGRTFRRYTKGWYRQAPGKERELVAAISRGGSTNYADSVKGRFTISRDNAMNTFYLQMNSLKPEDTAVYYCNADYWYDWNSYDYWGQGTQVTVSS | high polyreactivity |
| QVQLVESGGGLVQAGGSLRLSCAASGLTFYGYTMGWYRQAPGKERELVADISISGGSTRYADSVKGRFTISRDNAKNTVYLQMNSLKPEDTAVYYCARDDIYYSNIYDYWGQGTQVTVSS | low polyreactivity |
| QVQIVESGGGLVQAGGSLRLSCAASGIFYAMGWYRQAPWTKRELDDAISSVGSTNYADSVKGRFSISRDNAKNTVYLQMNSLKPEDTAVYYCAAYFYTYPVDRYGSYYWGQVTQVTVSS | low polyreactivity |
| QVQLVESGGGLVQAGGSLRLSCAASGSPFRSYAMGWYRQAPGKERELVAAISISGGRTYYADSVKGRFTISRDNAKNTVYLQMNSLKPEDTAVYYCAADRRTDGHDYWGQGTQVTVSS | high polyreactivity |
| QVQLVESGGGLVQAGGSLRLSCAASGSTFGVNAMGWYRQAPGKERELVAAITWSGDTTYYADSVKGRFTISRDNAKNTVYLQMNSLKPEDSAVYYCATYYYYPSWYLLYGDYNYWGQGTQVTVSS | low polyreactivity |
| QVQLVESGVGIVQAGGSLRISCAASGTNFLFYAMGWYRQAPGKERELVATISRGGSTYYADSVKGRFTISRDNAKNTVYFQMKSLKPEDTAVYYCAARATRVTIAPRYGYWGQGTQVTVSS | low polyreactivity |
| QVQLVESGGGLVQAGGSLRLSCAASGSTFICKAMGWYRQAPGKERELVAAIDYRGGNTYYADSVKGRFTISRDYAKNSVYLHMNSLKPEHTAVYYCAARVVGYEYFYDYYYWGQGTQVTLSS | low polyreactivity |

The measurements presented in this section are drawn from the nanobody polyreactivity screen of Harvey et al. (2022).
